assay target: Estrogen receptor (Homo sapiens)
procedure details: ERα coactivator recruitment potentiators – biochemical, TR-FRET, ERα LBD, low estradiol, primary screen (AID 639);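 note: binding measured in presence of low estradiol as agonist stimulus; 0% = peptide alone without receptor and 100% = receptor with peptide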
condition parameters: TR-FRET ERalpha-LBD/SRC-Cy5 coactivator binding, 2 h; at 25.6 µM; 100 = basal binding, no effect
About 1,200 (1.4%) of roughly 86,000 compounds were called active. Cut-off read from the data, not from the text of the source: active = activity above about 200%; inactive = the rest. Only a selection was taken, and actives are over-represented in it overall.
Reply using exactly one outcome from 1 (yes) for active, 0 (no) for inactive

input: What outcome does the record of this test show for Cc1cc(NC(=O)CSc2nc(C(C)C)nc3sc4c(c23)CCC(C)C4)no1 (stereo unspecified) ?
output: 1 (yes)

input: What outcome does the record of this test show for `Cc1nc(SCC(=O)Nc2cc(C)on2)c2c3c(sc2n1)CCCC3` ?
output: 0 (no)

input: What outcome does the record of this test show for `Cc1ccc(-c2csc(SCC(=O)Nc3cc(C)on3)n2)cc1` ?
output: 0 (no)

input: What outcome does the record of this test show for `Cc1nc(N2CCOCC2)nc2c1CCCC2` ?
output: 0 (no)

input: What outcome does the record of this test show for Cc1ccc(NC(=S)NC(NC(=O)Cc2cccc3ccccc23)C(Cl)(Cl)Cl)cc1 (stereo unspecified) ?
output: 0 (no)

input: What outcome does the record of this test show for CC(Oc1ccc(Cl)cc1)C(=O)Nc1ncccn1 (stereo unspecified) ?
output: 1 (yes)

input: What outcome does the record of this test show for `C/C(O)=C\c1nc(=O)c2c(C)cc(C)nc2n1-c1ccccc1` ?
output: 1 (yes)

input: What outcome does the record of this test show for CC(Oc1ccc(Cl)cc1)C(=O)OCC(=O)Nc1ncc(Cl)cc1Cl (stereo unspecified) ?
output: 0 (no)

input: What outcome does the record of this test show for `N#CCSc1nc2ccccc2c(=O)n1-c1ccccc1` ?
output: 0 (no)

input: What outcome does the record of this test show for `Cc1nc(SCC(=O)Nc2cc(C)on2)c2c(C)c(C)sc2n1` ?
output: 1 (yes)

input: What outcome does the record of this test show for `CCn1c(CNC(=O)c2ccccc2)nnc1SCC(=O)N1CCN(c2ccccc2)CC1` ?
output: 0 (no)

---

assay target: Estrogen receptor (Homo sapiens) (UniProt P03372)
Sequence (P03372 whole entry, looked up, the tested form may be a part): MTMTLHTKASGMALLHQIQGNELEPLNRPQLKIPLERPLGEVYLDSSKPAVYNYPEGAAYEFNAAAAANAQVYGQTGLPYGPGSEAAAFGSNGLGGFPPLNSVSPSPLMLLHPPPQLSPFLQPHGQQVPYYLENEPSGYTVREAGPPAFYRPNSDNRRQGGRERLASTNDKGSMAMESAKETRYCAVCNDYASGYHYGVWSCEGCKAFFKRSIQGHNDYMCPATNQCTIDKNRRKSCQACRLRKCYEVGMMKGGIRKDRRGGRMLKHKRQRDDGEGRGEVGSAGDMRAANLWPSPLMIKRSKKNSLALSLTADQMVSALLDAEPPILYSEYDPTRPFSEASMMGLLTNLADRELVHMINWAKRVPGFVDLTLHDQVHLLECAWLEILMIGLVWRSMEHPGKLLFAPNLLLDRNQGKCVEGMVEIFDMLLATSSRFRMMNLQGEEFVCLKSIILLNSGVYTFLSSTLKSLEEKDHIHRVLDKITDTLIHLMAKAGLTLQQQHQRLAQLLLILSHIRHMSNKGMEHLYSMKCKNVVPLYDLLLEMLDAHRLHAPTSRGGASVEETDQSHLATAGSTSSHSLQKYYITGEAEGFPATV
procedure details: ERα coactivator recruitment potentiators – biochemical, TR-FRET, ERα LBD, low estradiol, primary screen (AID 639);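 note: binding measured in presence of low estradiol as agonist stimulus; 0% = peptide alone without receptor and 100% = receptor with peptide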
condition parameters: TR-FRET ERalpha-LBD/SRC-Cy5 coactivator binding, 2 h; at 25.6 µM; 100 = basal binding, no effect
About 1,200 (1.4%) of roughly 86,000 compounds were called active. Rule as the data show it: active = activity above about 200%; inactive = the rest. Shown is part of a subset that was picked to be rich in actives.
Reply using exactly one outcome from 1.0 (active), 0.0 (inactive)

input: What outcome does the record of this test show for `CCOC(=O)c1nnn(-c2nonc2OC)c1-c1ccccc1` ?
output: 0.0

input: What outcome does the record of this test show for `CC(=O)Nc1ccc(NC(=O)c2sc3nc4c(c(-c5ccc(C)cc5)c3c2N)CCC4)cc1` ?
output: 1.0

input: What outcome does the record of this test show for `Cc1cccc(OCCCC(=O)Nc2ccc(S(=O)(=O)N3CCCC3)cc2)c1` ?
output: 0.0

input: What outcome does the record of this test show for `CCN1C(=O)/C(=C\N2CCN(c3ccccc3)CC2)SC1=S` ?
output: 1.0

input: What outcome does the record of this test show for `c1ccc(-c2noc(-c3cccs3)n2)nc1` ?
output: 0.0

input: What outcome does the record of this test show for `COCCn1c(SCc2nnc(-c3ccc(OC)c(OC)c3)o2)nc2sc3c(c2c1=O)CCC3` ?
output: 0.0

input: What outcome does the record of this test show for `CCN1C(=O)/C(=C\N2CCOCC2)SC1=S` ?
output: 0.0

input: What outcome does the record of this test show for CCCCC(C(=O)OCC(=O)c1ccc(OC)cc1)N1C(=O)c2ccccc2C1=O (stereo not drawn) ?
output: 0.0

input: What outcome does the record of this test show for `CC(=O)c1ccc(-n2nnnc2SCC(=O)N2CCN(C(=O)c3ccco3)CC2)cc1` ?
output: 0.0

input: What outcome does the record of this test show for `Cc1nc(N2CCN(c3ncccn3)CC2)c2oc3ccccc3c2n1` ?
output: 1.0

input: What outcome does the record of this test show for `CSc1ccc(-c2c(C#N)c(N)nc3c2c(C)nn3-c2ccccc2)cc1` ?
output: 1.0

input: What outcome does the record of this test show for `CCOC(=O)c1c(N=CN(C)C)c(C#N)c2n1CCCC2` ?
output: 0.0

input: What outcome does the record of this test show for `Cc1ccc(NC(=O)CSc2nnc(-c3cnccn3)n2Cc2ccco2)cc1C` ?
output: 1.0

input: What outcome does the record of this test show for `NC(=O)c1sc2nc3c(c(-c4ccccc4)c2c1N)CCC3` ?
output: 0.0

input: What outcome does the record of this test show for `COc1ccc(C2(CNC(=O)C(c3ccccc3)c3ccccc3)CCOCC2)cc1OC` ?
output: 0.0

input: What outcome does the record of this test show for `CCS(=O)(=O)N1CCC(C(=O)N2CCN(c3ccccc3)CC2)CC1` ?
output: 0.0

input: What outcome does the record of this test show for `CCN1CCN(c2ncnc3c2oc2nc(C)c4c(c23)CC(C)(C)OC4)CC1` ?
output: 0.0

input: What outcome does the record of this test show for `CCN1C(=O)/C(=C\N2CCN(c3cccc(Cl)c3)CC2)SC1=S` ?
output: 1.0

input: What outcome does the record of this test show for `CCn1c(=O)cc(OCC(=O)NCCCN2CCN(c3cccc(Cl)c3)CC2)c2ccccc21` ?
output: 0.0

input: What outcome does the record of this test show for `CS(=O)(=O)N(CC(=O)N1CCN(c2cccc(Cl)c2)CC1)c1ccccc1` ?
output: 0.0

input: What outcome does the record of this test show for `COCCn1c(C)cc(C(=O)CSc2ncnc3sc4c(c23)CCC4)c1C` ?
output: 1.0

input: What outcome does the record of this test show for `CCc1nc(N2CCN(c3nc(C)cc(C)n3)CC2)c2oc3ccccc3c2n1` ?
output: 0.0

input: What outcome does the record of this test show for `CC(C)c1nc2oc3c(N4CCN(C)CC4)ncnc3c2c2c1CCC2` ?
output: 1.0

input: What outcome does the record of this test show for `O=C(Oc1ccc(-c2nc(-c3ccccn3)no2)cc1)c1ccccc1` ?
output: 1.0

input: What outcome does the record of this test show for CCCOc1ccc(N2C(=O)CC(N(CCc3ccc(S(N)(=O)=O)cc3)C(C)=O)C2=O)cc1 (stereo not drawn) ?
output: 0.0

input: What outcome does the record of this test show for `CCc1ccc(NC(=O)CSc2nnc(-c3cnccn3)n2Cc2ccco2)cc1` ?
output: 0.0

input: What outcome does the record of this test show for CC1(C)C2CCC13CS(=O)(=O)NC3C2 (stereo not drawn) ?
output: 0.0

input: What outcome does the record of this test show for `CC(C)c1nc(-c2ccccn2)no1` ?
output: 0.0
